target: human NAMPT (Homo sapiens, UniProt P43490); assay: Human recombinant enzyme assay (NMN fluorescence biochemical assay, activation of NAMPT); settings: Table A; human recombinant NAMPT, NMN formation, 60 min; read-out: EC50 Human
Sequence (P43490 whole entry): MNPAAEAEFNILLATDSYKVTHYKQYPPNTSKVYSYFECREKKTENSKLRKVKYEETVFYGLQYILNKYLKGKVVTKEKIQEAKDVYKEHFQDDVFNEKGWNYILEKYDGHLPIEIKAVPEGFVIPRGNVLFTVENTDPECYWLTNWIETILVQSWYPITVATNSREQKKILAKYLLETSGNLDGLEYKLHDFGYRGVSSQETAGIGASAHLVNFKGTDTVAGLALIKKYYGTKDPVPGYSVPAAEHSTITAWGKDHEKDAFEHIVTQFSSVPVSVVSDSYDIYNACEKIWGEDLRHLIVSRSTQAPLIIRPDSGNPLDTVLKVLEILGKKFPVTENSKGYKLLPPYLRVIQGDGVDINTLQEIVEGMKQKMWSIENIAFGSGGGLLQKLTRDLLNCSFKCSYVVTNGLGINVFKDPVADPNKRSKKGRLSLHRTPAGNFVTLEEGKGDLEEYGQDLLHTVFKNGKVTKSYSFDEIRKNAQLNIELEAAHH
reportedMetric: pEC50
As a rule, pEC50 stands for the negative log10 of the concentration, concentration in M.

INSERT INTO assay_data (compound, obsvalue) VALUES
  ('Cc1ccccc1C(=O)N1CCC(CCCCNC(=O)NCc2cnco2)CC1 [Compound 320]', 5.85);

Proceeding to the next compound to report its pEC50.
Enter reported pEC50 observed with human NAMPT (Homo sapiens, UniProt P43490) for COc1ccc(CNC(=O)NC2CC3(C2)CN(C(=O)c2ccc(C(C)(C)O)cc2)C3)cc1 [Compound 157]
4.32

---

Biological target: human NAMPT (Homo sapiens, UniProt P43490)
Assay: Human recombinant enzyme assay (NMN fluorescence biochemical assay, activation of NAMPT)
Conditions: Table A; human recombinant NAMPT, NMN formation, 60 min
Experimental: Compounds described herein were assayed for their ability to stimulate the synthesis of nicotinamide mononucleotide (NMN) by the enzyme NAMPT. […] Dose responses were measured using an assay to detect the formation of nicotinamide mono-nucleotide. […] The plates were read for fluorescence (Excitation/Emission=355 nm/460 nm) using an EnVision plate reader after 40 mins of incubation at ambient temperature.
reportedMetric: AC1.4 Human (µM)
Enter your answer as a number in µM; do not include the unit.

Study these solved cases before continuing.
INSERT INTO results (compound, endpointunit, obsvalue) VALUES
  ('COc1ccc(CNC(=O)NC2CC3(C2)CN(C(=O)c2ccc(C)nc2)C3)cc1', 'µM', 5.7),
  ('Cc1cccc(CC(=O)N2CCC(CCCCNC(=O)NCc3ccc(Cl)cc3)CC2)n1', 'µM', 1.0),
  ('O=C(CCCCCNC(=O)NCc1ccc(Cl)cc1)Nc1ccccc1-c1ccccc1', 'µM', 0.9),
  ('COc1ccc(CNC(=O)NC2CC3(C2)CN(C(=O)C(C)(C)c2ccc(C)cc2)C3)cc1', 'µM', 2.3),
  ('Cc1ccc(C(=O)N2CC3(CC(NC(=O)NCc4ccncc4)C3)C2)cc1', 'µM', 1.9),
  ('COC(=O)[C@H]1C[C@@]2(C[C@H](NC(=O)NCc3ccc(Cl)cc3)C2)C1 (single isomer, unassigned)', 'µM', 6.7),
  ('O=C(NCCCCC1CCN(C(=O)c2ncco2)CC1)NCc1ccc(Cl)cc1', 'µM', 0.2),
  ('O=C(NCCCCC1CCN(C(=O)c2ccncc2)CC1)NCc1ccc(Cl)cc1', 'µM', 1.3),
  ('O=C(NCCCCC1CCN(C(=O)c2ccccc2C(F)F)CC1)NCc1ccc(Cl)cc1', 'µM', 0.5),
  ('NC(=O)c1ccc(CNC(=O)NC2CC3(C2)CN(C(=O)c2cccc(N4CCCC4)c2)C3)cc1', 'µM', 0.2);

Need AC1.4 Human of O=C(NCc1ccc(Cl)cc1)NC1CC2(CC(CNC(=O)C3CCS(=O)(=O)CC3)C2)C1 (stereo not shown) , thanks.
1.5

I have this compound here, "COc1ccc(CNC(=O)NC2CC3(C2)CN(C(=O)Cc2ccccc2C)C3)cc1" , and I need its recorded AC1.4 Human.
10.7

Field request: AC1.4 Human | item: "Cc1ccc(C(=O)N2CC3(CC(NC(=O)NCc4ccc(C(N)=O)cc4)C3)C2)cc1"
0.5

Name the recorded AC1.4 Human for Cc1ccc(C(=O)N(C)CC2CC3(C2)CC(NC(=O)NCc2ccc(Cl)cc2)C3)cn1 (stereo not shown) .
5.0

Given the compound COc1ccc(CNC(=O)NC2CC3(C2)CC(C(=O)NC2(c4ccccc4)CC2)C3)cc1 (stereo not shown) , what is its reported AC1.4 Human?
4.9

Requested field: AC1.4 Human. Item: COc1ccc(CNC(=O)NC2CC3(C2)CC(C(=O)N2CCN(CC(C)(C)O)CC2)C3)cc1 (stereo not shown)
0.7
